Details: [M+2Na-H]+; instrument: DT; stepped-field
Reported collision cross section (N2) values follow for various molecules
Your answer should be a plain number; it is taken to be in Å².

CC/C=C\C/C=C\C/C=C\C/C=C\C/C=C\C/C=C\CCC(=O)O[C@H](COC(=O)CCCCCCCCC/C=C\CCCCCCCCCC)COP(=O)(O)OC[C@H](N)C(=O)O ... 303.11
CCCCC/C=C\C/C=C\CCCCCCCC(=O)O[C@H](COCCCCCCCCCCCCCCCC)COP(=O)(O)OCCN ... 273.55
CCCC/C=C\CCCCCCCC(=O)OC[C@H](COP(=O)(O)OCCN)OC(=O)CCCCCCCCCCCCCCCCCCCC ... 279.57

Next:
Query: Record request: collision cross section (N2) value, item CC/C=C\C/C=C\C/C=C\C/C=C\C/C=C\CCCC(=O)O[C@H](COC(=O)CCCCCC/C=C\C/C=C\C/C=C\CCCCC)COP(=O)(O)OC[C@H](N)C(=O)O
Reply: 287.97

---

Settings: [M+H]+; instrument: TW; Major Mix IMS/Tof Calibration Kit (Waters)
Reported collision cross section (N2) values follow for various compounds
Your answer should be a plain number; it is taken to be in Å².

// solved cases for collision cross section (N2) follow
CN1CCN(CCCN2c3ccccc3Sc3ccc(C(F)(F)F)cc32)CC1 [Trifluoperazine] ... 188.1
CC(=O)Nc1cccc(O)c1 [Metacetamol] ... 129.8
CN1[C@@H]2CC[C@H]1C[C@@H](OC(c1ccccc1)c1ccccc1)C2 [Benztropine] ... 180.8
Clc1ccc2c(c1)C(N1CCNCC1)=Nc1ccccc1O2 [Amoxapine] ... 170.2
COc1ccc(CCNCCCC(C#N)(c2ccc(OC)c(OC)c2)C(C)C)cc1OC (stereo not drawn) [Verapamil-M nor] ... 207.3
CNCCC[C@@]1(c2ccc(F)cc2)OCc2cc(C#N)ccc21 [Citalopram-M N-desmethyl] ... 178.7
C[C@@H](Cc1ccccc1)N(C)Cc1ccccc1 [Benzphetamine] ... 154.8

Query: Record request: collision cross section (N2) value, item COc1ccc2c3c1O[C@H]1[C@@H](O)CC[C@H]4[C@@H](C2)N(C)CC[C@@]341 [Dihydrocodeine]
Reply: 168.6

---

Conditions: [M+K]+; instrument: TW; calibrated with polyalanine
Readout type: collision cross section (N2)

// solved cases for collision cross section (N2) follow
COc1cc2c(c3oc(=O)c4c(c13)CCOC4=O)C1C=COC1O2 (stereo unspecified) [Aflatoxin G1] ... 180.2 Å²
COc1cc2c(c3oc(=O)c4c(c13)CCC4=O)[C@@H]1C=CO[C@@H]1O2 [Aflatoxin B1] ... 177.1 Å²
CCCC[C@@H](C)[C@@H](O)[C@@H](O)C[C@@H](C)C[C@H](O)CCCC[C@@H](O)C[C@H](O)[C@H](C)N [HFB1] ... 214 Å²
COc1cc2c(c3oc(=O)c4c(c13)CCC4=O)[C@]1(O)C=CO[C@@H]1O2 [Aflatoxin M1] ... 177.8 Å²
CC(C)[C@H]1C(=O)O[C@H](C(C)C)C(=O)N(C)[C@@H](C(C)C)C(=O)O[C@H](C(C)C)C(=O)N(C)[C@@H](C(C)C)C(=O)O[C@H](C(C)C)C(=O)N1C [Enniatin B] ... 251.1 Å²

Next:
Query: Record request: collision cross section (N2) value, item CCCC[C@@H](C)[C@@H](OC(=O)C[C@@H](CC(=O)O)C(=O)O)[C@H](C[C@@H](C)CCCCCC[C@@H](O)C[C@H](O)[C@H](C)N)OC(=O)C[C@@H](CC(=O)O)C(=O)O [Fumonisin B2]
Reply: 264.5 Å²

---

Settings: [M+K]+; instrument: DT; stepped-field
Reported collision cross section (N2) values follow for various molecules

Query: Record request: collision cross section (N2) value, item CC/C=C\C/C=C\C/C=C\C/C=C\C/C=C\C/C=C\CCC(=O)O[C@H](COC(=O)CCCCCCCCCCCC)COP(=O)([O-])OCC[N+](C)(C)C [PC(35:6)]
Reply: 291.8 Å²

Query: Record request: collision cross section (N2) value, item CCCCCCCCC/C=C\CCCCCCCC(=O)O[C@H](COC(=O)CCCCCCCCCCCCCCCCC)COP(=O)(O)OCCN [PE(37:1)]
Reply: 295 Å²

Query: Record request: collision cross section (N2) value, item CC/C=C\C/C=C\C/C=C\C/C=C\C/C=C\C/C=C\CCC(=O)O[C@H](COC(=O)CCCCCCCCCCCCCC)COP(=O)([O-])OCC[N+](C)(C)C [PC(37:6)]
Reply: 298.2 Å²

Query: Record request: collision cross section (N2) value, item CC(=O)N[C@H]1[C@H](O[C@H]2[C@@H](O)[C@@H](CO)O[C@@H](O[C@@H]([C@H](O)[C@@H](O)C=O)[C@H](O)CO)[C@@H]2O)O[C@H](CO)[C@@H](O[C@@H]2O[C@@H](C)[C@@H](O)[C@@H](O)[C@@H]2O)[C@@H]1O[C@@H]1O[C@H](CO)[C@H](O)[C@H](O)[C@H]1O [Lacto-N-Fucopentaose II]
Reply: 267.2 Å²

Query: Record request: collision cross section (N2) value, item CCCCC/C=C\C/C=C\C/C=C\C/C=C\CCCCCC(=O)O[C@H](COC(=O)CCCCCCC/C=C\C/C=C\CCCCC)COP(=O)(O)OCCN [PE(40:6)]
Reply: 294.7 Å²

---

Details: [M-H]-; instrument: DT; stepped-field
Readout type: collision cross section (N2) (Å²)
Your answer should be a plain number; it is taken to be in Å².

// solved cases for collision cross section (N2) follow
CCCCC/C=C\C/C=C\CCCCCCCCCC(=O)O[C@H](COC(=O)CCCCCCC/C=C\CCCCCC)COP(=O)(O)OCCN ... 269.84
CCCCC/C=C\C/C=C\C/C=C\C/C=C\CCCCCC(=O)O[C@H](COC(=O)CCCCCCC/C=C\C/C=C\CCCCC)COP(=O)(O)OC[C@H](N)C(=O)O ... 289.09
CCCCCC/C=C\CCCCCCCC(=O)OC[C@H](COP(=O)(O)OC[C@H](N)C(=O)O)OC(=O)CCCCCCCCC/C=C\CCCCCCCCCC ... 287.56

Query: Record request: collision cross section (N2) value, item CC/C=C\C/C=C\C/C=C\CCCCCCCC(=O)O[C@H](COC(=O)CCCCCCCCCCCCCCC)COP(=O)(O)OCCN
Reply: 263.76

Query: Record request: collision cross section (N2) value, item CCCCC/C=C\C/C=C\C/C=C\C/C=C\CCCCCC(=O)O[C@H](COC(=O)CCCCCCC/C=C\C/C=C\CCCCC)COP(=O)(O)OCCN
Reply: 280.5

Query: Record request: collision cross section (N2) value, item CCCCCCCC/C=C\CCCCCCCC(=O)O[C@H](COC(=O)CCCCCCCCCCCCCCCCC)COP(=O)(O)OC[C@H](N)C(=O)O
Reply: 282.92

Query: Record request: collision cross section (N2) value, item CCCCC/C=C\C/C=C\C/C=C\CCCCCCC(=O)O[C@H](COC(=O)CCCCCCC/C=C\C/C=C\CCCCC)COP(=O)(O)OCCN
Reply: 274.82

Query: Record request: collision cross section (N2) value, item CCCCCCCC/C=C\C/C=C\CCCCC(=O)OC[C@H](COP(=O)(O)OCCN)OC(=O)CCCC/C=C\C/C=C\CCCCCCCC
Reply: 269.7

Query: Record request: collision cross section (N2) value, item CC/C=C\C/C=C\C/C=C\CCCCCCCC(=O)O[C@H](COC(=O)CCCCC/C=C\C/C=C\C/C=C\C/C=C\CCCCC)COP(=O)(O)OC[C@H](N)C(=O)O
Reply: 287.37

---

Conditions: [M+H]+; instrument: TW; calibrated with phosphatidylcholines (ESI+) and phosphatidylethanolamines (ESI-)
Reported collision cross section (N2) values follow for various compounds
Your answer should be a plain number; it is taken to be in Å².

// solved cases for collision cross section (N2) follow
CCCCCC/C=C\CCCCCCCCCC(=O)OC(COC(=O)CCCCCCCCCCCCCCC)COP(=O)([O-])OCC(O)COC(=O)C(C)[NH3+] (stereo not given) [AlaPG(34:1)] ... 291.7
CCCCCCCCCCCCCCC(=O)OCC(COP(=O)([O-])OCC(O)COC(=O)C(N)CCCC[NH3+])OC(=O)CCCCCCCCCCCC (stereo not given) [LysPG(28:0)] ... 284.7

Query: Record request: collision cross section (N2) value, item CCCCCC/C=C\CCCCCCCC(=O)OCC(COP(=O)([O-])OCC(O)COC(=O)C(N)CCCC[NH3+])OC(=O)CCCCCCC/C=C\CCCCCC (stereo not given) [LysPG(32:2)]
Reply: 290.8

Query: Record request: collision cross section (N2) value, item CCCCCC/C=C\CCCCCCCCCC(=O)OCC(COP(=O)([O-])OCC(O)COC(=O)C(N)CCCC[NH3+])OC(=O)CCCCCCCCCCCCCCCC (stereo not given) [LysPG(35:1)]
Reply: 303.5
